System: uptake of serotonine by human blood platelets
Test: Inhibition of the uptake of serotonine by human blood platelets
Assay type: cell-based
Details: Homo sapiens, Platelet, read-out: Inhibition of the Uptake of serotonine I50
Source text: It is known that the uptake of serotonine by the blood platelets is a good model or indication of the uptake of this amine by neurons [see J. TUOMISTO, J. Pharm., Pharmac., 26 92 (1974)]. When it is applied to the investigation of medicaments, a method which brings into play the blood platelets presents great interest because it makes it possible to use human cells, which enables the method to give a good anticipation of the effect of the products on human beings. […]
Measurement type: IC50 (nM)
// note: answer is a bare numeric in nM

**Q:** Any idea what IC50 was measured for `C=C[C@@H]1CNCC[C@H]1CCCc1ccnc2ccc(OC)cc12` ?
**A:** 1000

**Q:** Any idea what IC50 was measured for CN(C)CCCN1c2ccccc2CCc2ccccc21 [Imipramine, reference compound] ?
**A:** 400

**Q:** Any idea what IC50 was measured for CC(N)Cc1ccc(Cl)cc1 (stereo not shown) [p-Chloro amphetamine, p-chloro amphetamine, reference compound] ?
**A:** 12000

**Q:** Any idea what IC50 was measured for `C=C[C@H]1CNCC[C@H]1CCCc1ccnc2ccc(OC)cc12` ?
**A:** 10

----------
target: benzodiazepine receptors in rat brain membranes; assay: Inhibition of specific ^3 H-diazepam binding to rat brain membranes; settings: read-out: Ki, Inhibition of Specific ^3 H-Diazepam Binding To Rat Brain Membranes; rat brain membranes, ^3 H-diazepam
What Ki was measured for each of the following?
// note: answer is a bare numeric in µM

**Q:** Any idea what Ki was measured for C=C[C@H]1CNCC[C@H]1CCCc1ccnc2ccccc12 [Example 2] ?
**A:** 2.5

**Q:** Any idea what Ki was measured for CC[C@@H]1CNCC[C@H]1CCCc1ccnc2ccc(OC)cc12 [Example 9] ?
**A:** 5

**Q:** Any idea what Ki was measured for CC[C@H]1CNCC[C@H]1CCCc1ccnc2ccccc12 [Example 5] ?
**A:** 8

**Q:** Any idea what Ki was measured for CC[C@H]1CNCC[C@H]1CCCc1ccnc2ccc(OC)cc12 [Example 3] ?
**A:** 4.5

**Q:** Any idea what Ki was measured for c1ccc2c(CCCC3CCNCC3)ccnc2c1 [Example 4, 4-[3-(4-quinolyl)propyl]piperidine] ?
**A:** 3.5

These data points were gathered from patent US4237139A.
